All figures here come from ChEMBL document CHEMBL3988442.

The following molecules are listed with their measured Percent Effect values.
target: Tyrosyl-tRNA synthetase, putative (Trypanosoma cruzi (strain CL Brener)) (UniProt Q4DSP6); assay: Trypanosoma cruzi tyrosyl tRNA synthetase (TcYRS) _High Tyrosine SOP; format: functional; set-up: scale not given: in the data most compounds retested in dose-response had high values; details: 30 µM
Sequence (Q4DSP6 as listed by the source): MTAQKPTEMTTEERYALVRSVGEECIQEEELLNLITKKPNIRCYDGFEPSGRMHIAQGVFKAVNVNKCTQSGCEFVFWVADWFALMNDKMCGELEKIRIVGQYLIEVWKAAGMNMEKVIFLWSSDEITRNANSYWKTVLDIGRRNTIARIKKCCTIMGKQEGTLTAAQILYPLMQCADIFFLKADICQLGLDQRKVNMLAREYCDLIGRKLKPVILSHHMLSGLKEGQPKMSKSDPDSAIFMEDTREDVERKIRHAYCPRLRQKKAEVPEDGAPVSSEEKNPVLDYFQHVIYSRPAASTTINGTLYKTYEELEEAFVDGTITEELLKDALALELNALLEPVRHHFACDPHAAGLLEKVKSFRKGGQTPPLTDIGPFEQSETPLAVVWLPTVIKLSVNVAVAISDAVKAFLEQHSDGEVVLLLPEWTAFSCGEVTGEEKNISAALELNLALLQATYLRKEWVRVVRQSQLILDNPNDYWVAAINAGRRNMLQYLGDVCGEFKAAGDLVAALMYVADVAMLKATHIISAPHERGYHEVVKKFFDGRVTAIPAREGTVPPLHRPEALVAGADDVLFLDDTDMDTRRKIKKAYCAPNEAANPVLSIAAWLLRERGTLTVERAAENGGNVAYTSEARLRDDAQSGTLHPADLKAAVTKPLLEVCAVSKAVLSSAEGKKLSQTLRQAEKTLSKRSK
Answer with a number only, understood to be in %.

Fill in the blank: the reported Percent Effect of "O=C(NCCN1CCCCC1)c1scnc1Cl" is ____.
9.36

Percent Effect for CCSCC(C)NCc1nncn1C1CCCCC1 (stereo not given) ?
11.6

What Percent Effect value was documented for this molecule, "CC(C)n1c(=O)nc2n1C(=O)N(c1ccc(F)cc1)C2" ?
4.25

Bench note: what Percent Effect did "CNC(=O)CN(C)c1nc(-c2ccncc2)nc2c1CCN(C(C)=O)C2" show?
1.6

Quick check: Percent Effect of "Cc1c[nH]c(CN(C)C(=O)c2cccc(CCC(C)(C)O)c2)n1" ?
3.83

Next:
What Percent Effect value was documented for this molecule, "O=C(Cc1ccccn1)N1CCc2nc(-c3cnccn3)nc(O)c2C1" ?
4.3

Name the recorded Percent Effect for O=C(NCCNc1ncccn1)N1CCCC(C(F)(F)F)C1 (stereo not given) .
4.76

Report Percent Effect for "Cc1noc(NC(=O)c2ccc(Br)s2)n1" please.
-3.45

Recorded Percent Effect of c1ccc2oc(CCCN3CCOC(Cn4cccn4)C3)nc2c1 (stereo not given) , please.
0

Name the recorded Percent Effect for CN(Cc1cccc(F)c1)C(=O)CN1CCOC(Cn2cccn2)C1 (stereo not given) .
3.92

// query Percent Effect value for entry Cc1nc(COc2ccc(CNCC3CN(C)CCO3)cc2)cs1 (stereo not given)
-0.98

Fill in the blank: the reported Percent Effect of CC(CCc1ccco1)NC(=O)Nc1cc(C(F)(F)F)c[nH]c1=O (stereo not given) is ____.
7.39
